# target.or.test.system: EHMT2 (Homo sapiens)
# Construct: host or cells: MDA-MB-231
# Sequence (Q96KQ7 1-1210): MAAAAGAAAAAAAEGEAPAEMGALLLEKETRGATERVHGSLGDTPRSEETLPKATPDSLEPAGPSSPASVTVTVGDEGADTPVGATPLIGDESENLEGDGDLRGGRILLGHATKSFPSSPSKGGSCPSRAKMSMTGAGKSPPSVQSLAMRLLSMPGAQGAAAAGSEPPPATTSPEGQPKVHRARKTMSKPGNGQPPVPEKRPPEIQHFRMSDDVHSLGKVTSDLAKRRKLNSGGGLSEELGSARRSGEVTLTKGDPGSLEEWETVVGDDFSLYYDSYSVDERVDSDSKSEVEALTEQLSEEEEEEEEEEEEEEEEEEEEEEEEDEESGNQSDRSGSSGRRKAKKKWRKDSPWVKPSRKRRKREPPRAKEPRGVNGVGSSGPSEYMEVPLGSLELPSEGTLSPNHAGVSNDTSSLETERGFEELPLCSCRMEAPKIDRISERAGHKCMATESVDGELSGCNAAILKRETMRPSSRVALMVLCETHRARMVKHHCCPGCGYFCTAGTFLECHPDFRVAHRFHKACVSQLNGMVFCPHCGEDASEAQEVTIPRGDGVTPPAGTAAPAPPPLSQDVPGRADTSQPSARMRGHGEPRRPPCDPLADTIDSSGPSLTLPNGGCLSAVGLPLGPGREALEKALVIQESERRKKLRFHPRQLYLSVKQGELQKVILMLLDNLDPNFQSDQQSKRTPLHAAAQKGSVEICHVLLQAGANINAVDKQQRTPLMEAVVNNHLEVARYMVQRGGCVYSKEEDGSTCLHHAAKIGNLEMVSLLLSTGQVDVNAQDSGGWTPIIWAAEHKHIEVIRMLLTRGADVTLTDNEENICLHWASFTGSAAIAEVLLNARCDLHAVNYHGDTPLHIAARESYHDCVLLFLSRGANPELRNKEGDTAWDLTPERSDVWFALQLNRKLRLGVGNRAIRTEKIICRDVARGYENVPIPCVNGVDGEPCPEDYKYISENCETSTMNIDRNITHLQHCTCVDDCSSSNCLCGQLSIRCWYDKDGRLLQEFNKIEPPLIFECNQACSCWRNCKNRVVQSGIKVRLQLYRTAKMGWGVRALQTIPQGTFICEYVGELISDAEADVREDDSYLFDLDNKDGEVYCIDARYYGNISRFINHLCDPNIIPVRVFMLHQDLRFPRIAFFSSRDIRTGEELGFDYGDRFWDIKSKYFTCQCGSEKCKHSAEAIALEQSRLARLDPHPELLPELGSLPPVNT
# assay.notes: MDA-MB-231 H3K9me2 in-cell Western assay (EHMT2 ICW)
# Assay type: cell-based
# study.conditions: Table VII; read-out: EHMT2 ICW IC50
Below is a list of entries, each paired with its recorded IC50 value.

Worked examples follow.
CNc1cc(C)nc(Nc2cnc(OC)c(CNCCN3CCCC3)c2)n1: 100 to 1000 nM
CNCCNC(C)c1cc(Nc2nc(C)cc(NC)n2)ccc1OC (stereo not drawn): 1000 to 10000 nM

# input for lookup
Prompt: State its IC50 on EHMT2 (Homo sapiens): CNc1cc(C)c2cc(OC)c(OC[C@H](C)CN3CCC3)cc2n1
Completion: 100 to 1000 nM

---

# target.or.test.system: EHMT1 (Homo sapiens)
# Sequence (Q9H9B1 whole entry, species assumed): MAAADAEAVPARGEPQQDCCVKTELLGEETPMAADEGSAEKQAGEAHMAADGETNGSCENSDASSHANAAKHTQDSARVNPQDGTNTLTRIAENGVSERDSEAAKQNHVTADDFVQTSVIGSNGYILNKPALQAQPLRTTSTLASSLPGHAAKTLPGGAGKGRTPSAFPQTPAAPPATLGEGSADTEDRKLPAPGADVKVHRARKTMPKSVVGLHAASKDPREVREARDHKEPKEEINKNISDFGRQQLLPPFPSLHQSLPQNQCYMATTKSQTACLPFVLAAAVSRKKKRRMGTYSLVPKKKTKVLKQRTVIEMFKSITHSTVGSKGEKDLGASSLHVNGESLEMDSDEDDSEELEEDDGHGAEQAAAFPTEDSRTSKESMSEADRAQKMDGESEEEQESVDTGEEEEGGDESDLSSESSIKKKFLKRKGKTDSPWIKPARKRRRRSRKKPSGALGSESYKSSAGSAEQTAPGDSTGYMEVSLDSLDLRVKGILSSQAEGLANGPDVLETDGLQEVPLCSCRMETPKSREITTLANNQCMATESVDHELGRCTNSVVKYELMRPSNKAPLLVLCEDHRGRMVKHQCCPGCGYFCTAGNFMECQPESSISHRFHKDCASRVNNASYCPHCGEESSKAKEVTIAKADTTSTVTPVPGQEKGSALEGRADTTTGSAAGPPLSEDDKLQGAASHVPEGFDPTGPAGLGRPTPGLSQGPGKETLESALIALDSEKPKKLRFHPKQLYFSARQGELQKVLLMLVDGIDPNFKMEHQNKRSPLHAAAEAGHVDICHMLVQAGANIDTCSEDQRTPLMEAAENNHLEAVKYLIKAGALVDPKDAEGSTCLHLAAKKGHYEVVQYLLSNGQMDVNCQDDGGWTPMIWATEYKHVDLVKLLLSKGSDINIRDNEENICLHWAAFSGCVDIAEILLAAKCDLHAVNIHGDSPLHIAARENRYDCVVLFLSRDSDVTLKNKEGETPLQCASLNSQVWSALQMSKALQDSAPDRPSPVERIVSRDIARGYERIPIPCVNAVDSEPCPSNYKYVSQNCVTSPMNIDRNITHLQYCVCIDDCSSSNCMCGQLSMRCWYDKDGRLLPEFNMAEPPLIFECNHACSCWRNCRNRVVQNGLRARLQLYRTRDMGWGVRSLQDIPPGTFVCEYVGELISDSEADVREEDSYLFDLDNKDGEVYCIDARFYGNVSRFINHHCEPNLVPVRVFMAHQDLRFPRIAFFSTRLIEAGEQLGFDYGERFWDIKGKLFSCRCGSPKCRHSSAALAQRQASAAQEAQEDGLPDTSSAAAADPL
# assay.notes: EHMT1 enzyme assay on peptide substrate (EHMT1 PEP)
# Type: biochemical
# study.conditions: Table VI; read-out: EHMT1 PEP IC50
pIC50: −log10 of the molar value.
Below is a list of entries, each paired with its recorded pIC50 value.

Worked examples follow.
CNc1cc(C2CCN(C3CCOCC3)CC2)c2cc(OC)c(OCCCN3CCCC3)cc2n1 [Compound 757]: > 7.00
CNc1nc(C2CCCN(C)C2)c2cc(OC)c(OCCCN3CCCC3)cc2n1 (centres unmarked) [Compound 746]: 6.00 to 7.00
CNC[C@H](COc1cc(Nc2nccc(NC)n2)ccc1OC)OC [Compound 921]: < 5.00
COc1cnc(Nc2nn(C)c3cnccc23)cc1OCCCN1CCCC1 [Compound 795]: < 5.00

Prompt: State its pIC50 on EHMT1 (Homo sapiens): CCN1CC(N(C)Cc2cc(Nc3nc(C)cc(NC)n3)ccc2OC)C1 [Compound 650]
Completion: < 5.00

Prompt: Try CNc1ccnc(Nc2ccc(OC)c(OC[C@H](O)CN3CCC3)c2)n1 [Compound 908] next.
Completion: > 7.00

Prompt: Try COc1cc2c(C3CCN(C(C)C)CC3)nc(C)nc2cc1OCCCN1CCCC1 [Compound 659] next.
Completion: 6.00 to 7.00

Prompt: Try CCN1CC[C@@H](COc2cc(Nc3nc(C)cc4[nH]ncc34)ncc2OC)C1 [Compound 947] next.
Completion: > 7.00

Prompt: Try CNc1cc(C)nc(Nc2ccc(OC)c(C(=O)NCc3ccccc3)c2)n1 [Compound 871] next.
Completion: < 5.00

Prompt: Try CNc1ccnc(Nc2ccc(OC)c(OC[C@H]3CNCCO3)c2)n1 [Compound 933] next.
Completion: 5.00 to 6.00

Prompt: Try CNc1ccnc(Nc2ccc(OC)c(OC[C@H](CN3CCCC3)OC)c2)n1 [Compound 920] next.
Completion: 6.00 to 7.00
